ASSAYED_SYSTEM: Gal6S(b1-4)Glc6S
PROTOCOL_TEXT: glycan array binding signal (z-score within array); higher = stronger binding
CONDITIONS_USED: glycan notation: IUPAC condensed, linker removed
The entries come from a sample that favours the strongest signals as a whole.
MEASURED_QUANTITY: glycan array binding signal (z-score)

PFL (Pseudomonas fluorescens) (protein) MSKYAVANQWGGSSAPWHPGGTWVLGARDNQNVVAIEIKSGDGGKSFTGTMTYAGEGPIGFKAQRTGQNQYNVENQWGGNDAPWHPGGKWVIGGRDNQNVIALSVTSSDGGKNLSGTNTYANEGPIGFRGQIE :: -0.107

For every item in the list below, what is its measured glycan array binding signal (z-score)?
1. Nc3LysM (protein) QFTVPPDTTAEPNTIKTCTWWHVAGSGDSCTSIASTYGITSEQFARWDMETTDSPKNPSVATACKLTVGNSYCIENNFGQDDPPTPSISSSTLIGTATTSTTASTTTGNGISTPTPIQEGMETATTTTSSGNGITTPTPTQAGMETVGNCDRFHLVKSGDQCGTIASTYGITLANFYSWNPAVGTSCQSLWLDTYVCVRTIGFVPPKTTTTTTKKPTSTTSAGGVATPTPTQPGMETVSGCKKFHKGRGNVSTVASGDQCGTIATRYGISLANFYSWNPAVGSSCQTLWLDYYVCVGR
2. Annexin-A1 (Mus musculus), P10107 (protein) MAMVSEFLKQARFLENQEQEYVQAVKSYKGGPGSAVSPYPSFNVSSDVAALHKAIMVKGVDEATIIDILTKRTNAQRQQIKAAYLQENGKPLDEVLRKALTGHLEEVVLAMLKTPAQFDADELRGAMKGLGTDEDTLIEILTTRSNEQIREINRVYREELKRDLAKDITSDTSGDFRKALLALAKGDRCQDLSVNQDLADTDARALYEAGERRKGTDVNVFTTILTSRSFPHLRRVFQNYGKYSQHDMNKALDLELKGDIEKCLTTIVKCATSTPAFFAEKLYEAMKGAGTRHKALIRIMVSRSEIDMNEIKVFYQKKYGISLCQAILDETKGDYEKILVALCGGN
3. Intelectin-1a (Mus musculus) (protein) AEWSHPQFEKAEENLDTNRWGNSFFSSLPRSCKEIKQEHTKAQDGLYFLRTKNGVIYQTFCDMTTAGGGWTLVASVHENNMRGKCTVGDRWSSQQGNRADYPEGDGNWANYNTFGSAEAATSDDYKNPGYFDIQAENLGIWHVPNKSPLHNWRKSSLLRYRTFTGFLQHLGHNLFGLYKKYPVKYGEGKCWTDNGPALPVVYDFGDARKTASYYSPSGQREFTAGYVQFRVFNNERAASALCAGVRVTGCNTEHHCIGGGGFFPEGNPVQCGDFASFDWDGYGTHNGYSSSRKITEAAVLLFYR
4. SLLPI (Homo sapiens), Q8IXA5 (protein) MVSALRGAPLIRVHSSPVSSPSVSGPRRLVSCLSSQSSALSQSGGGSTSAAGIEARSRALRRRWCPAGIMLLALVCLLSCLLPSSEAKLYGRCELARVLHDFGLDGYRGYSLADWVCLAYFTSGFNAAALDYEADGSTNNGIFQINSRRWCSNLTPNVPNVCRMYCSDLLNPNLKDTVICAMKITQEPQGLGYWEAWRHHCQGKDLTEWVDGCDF
5. EULS2 M2 (Oryza sativa) (protein) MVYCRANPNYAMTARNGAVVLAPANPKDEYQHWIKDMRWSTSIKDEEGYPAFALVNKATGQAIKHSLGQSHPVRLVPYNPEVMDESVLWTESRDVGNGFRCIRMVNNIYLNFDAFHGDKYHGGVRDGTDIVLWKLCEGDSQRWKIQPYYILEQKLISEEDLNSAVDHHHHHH
6. Onconase (Rana pipiens), P22069 (protein) QDWLTFQKKHITNTRDVDCDNIMSTNLFHCKDKNTFIYSRPEPVKAICKGIIASKNVLTTSEFYLSDCNVTSRPCKYKLKKSTNKFCVTCENQAPVHFVGVGSC
7. Gal 8 (Homo sapiens), O00214_1 (protein) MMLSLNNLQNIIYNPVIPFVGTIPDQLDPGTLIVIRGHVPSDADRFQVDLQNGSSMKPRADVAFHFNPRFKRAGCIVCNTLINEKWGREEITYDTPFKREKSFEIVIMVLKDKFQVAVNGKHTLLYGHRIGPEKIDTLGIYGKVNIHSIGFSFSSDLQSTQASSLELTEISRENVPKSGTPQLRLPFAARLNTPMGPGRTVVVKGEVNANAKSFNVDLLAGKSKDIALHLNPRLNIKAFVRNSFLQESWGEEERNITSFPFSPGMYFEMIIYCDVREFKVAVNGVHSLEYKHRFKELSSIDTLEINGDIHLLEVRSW

0.307
3.55
-0.38
1.85
4.74
0.598
-0.094

For every record below, what is its glycan array binding signal (z-score)?
1. CrataBL (Crataeva tapia), C0HJA4 (protein) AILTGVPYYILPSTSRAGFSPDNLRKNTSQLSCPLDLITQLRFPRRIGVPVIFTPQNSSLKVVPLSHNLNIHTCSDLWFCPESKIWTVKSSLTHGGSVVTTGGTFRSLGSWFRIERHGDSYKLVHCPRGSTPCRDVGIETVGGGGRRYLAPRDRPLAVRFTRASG
2. Ovorubin (Pomacea canaliculata), J7I2T6 (protein) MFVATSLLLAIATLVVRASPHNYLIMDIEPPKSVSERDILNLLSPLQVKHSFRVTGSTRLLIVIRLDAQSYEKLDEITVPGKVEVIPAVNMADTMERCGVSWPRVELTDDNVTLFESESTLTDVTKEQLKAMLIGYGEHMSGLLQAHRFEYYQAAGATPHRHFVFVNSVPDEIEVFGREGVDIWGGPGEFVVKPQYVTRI

[2.96, 3.93]
